Test: CCTE_Shafer_MEA_dev_per_burst_interspike_interval: CCTE's Neural Network Formation Assay for Burst Interspike Interval, Shafer Lab (AID 2284044);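 note: mean spike spacing inside bursts as AUC over recordings on days 5 7 9 12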
Procedure: CCTE_Shafer_MEA_dev assay is conducted using Axion Biosystems 48 well microelectrode array (MEA) plates and Maestro recording system. Each well of the MEA plate contains a grid of 16 microelectrodes embedded in the culture surface. Electrically active cells, such as neurons, can be cultured over the electrodes, and electrical activity in these cells can be recorded extracellularly. […]
Activity calls are given as the source filed them. Rule for the calls: active = hit-call score of the fitted dose curve at least 0.9, where 1 is the maximum; inactive = score below 0.9.
Value Type: outcome

Solved cases below.
CNS(=O)(=O)C(F)(F)C(F)(F)C(F)(F)C(F)(F)C(F)(F)C(F)(F)C(F)(F)C(F)(F)F ... inactive
NC(O)(C(F)(F)F)C(F)(F)F ... inactive
OCC(O)CC(F)(F)C(F)(F)C(F)(F)C(F)(F)F (stereo not given) ... inactive
NC(=O)C(F)(F)C(F)(F)C(F)(F)F ... inactive

Pending compound:
query: Bench note: what outcome did OC(O)C(F)(F)C(F)(F)F show?
result: inactive

---

target: Nuclear respiratory factor 1 (Homo sapiens); test: ATG_NRF1_CIS: Attagene CIS-FACTORIAL HepG2 Assay for human Nuclear Respiratory Factor 1 (NRF1) Orphan Gene (AID 2282987); settings: HepG2 NRF1 cis-element reporter, Attagene multiplex; actives raise or lower the signal
Active and inactive are the calls of the source. The calls were made as follows: active = hit-call score of the fitted dose curve at least 0.9, where 1 is the maximum; inactive = score below 0.9.
Use one of these outcomes when replying: active, inactive

query: Tell me the assay call for N#Cc1ccccc1O please.
result: inactive

query: What did this assay record as the result for O=C1OC(=O)c2ccc3c4c(ccc1c24)C(=O)OC3=O ?
result: inactive

query: For this compound, state the assay outcome: OCCCc1cccnc1
result: inactive

query: Hi, do you know how OCC(O)CC(F)(F)C(F)(F)C(F)(F)C(F)(F)C(F)(F)C(F)(F)C(F)(F)C(F)(F)F (stereo unspecified) came out in this test?
result: inactive

query: Look up the recorded call for O=C(F)C1(F)C(F)(F)C(F)(F)C(F)(F)C(F)(F)C1(F)F in this test.
result: inactive

query: Please share the test call associated with O=S(=O)(Cl)C(F)(F)C(F)(F)C(F)(F)C(F)(F)C(F)(F)C(F)(F)C(F)(F)C(F)(F)F .
result: inactive

query: What was the test verdict on F[Si-2](F)(F)(F)(F)F ?
result: inactive

query: Status in this test for OCC(F)(F)C(F)(F)C(F)(F)C(F)(F)C(F)(F)C(F)(F)C(F)(F)C(F)(F)CO ?
result: inactive

---

read-out: Vascular cell adhesion molecule 1 (VCAM1), VCAM1 (gene 7412); assay: BSK_MyoF_VCAM1: BioMAP Diversity Plus: MyoF Assay for Vascular cell adhesion molecule 1 (VCAM1) Biomarker Activity (AID 2284231); conditions: primary human lung fibroblasts
The source made the active and inactive calls. How the source made its calls: active means hit-call score of the fitted dose curve at least 0.9, where 1 is the maximum; inactive means score below 0.9.
Please answer using one outcome listed in active, inactive

Consider the following illustrative entries.
NCC(F)(F)C(F)(F)C(F)(F)C(F)(F)C(F)(F)C(F)(F)F ... inactive
OCC(O)CC(F)(F)C(F)(F)C(F)(F)C(F)(F)F (stereo not drawn) ... inactive
O=C(F)C1(F)C(F)(F)C(F)(F)C(F)(F)C(F)(F)C1(F)F ... inactive
O=S(=O)(O)CCC(F)(F)C(F)(F)C(F)(F)C(F)(F)C(F)(F)C(F)(F)C(F)(F)C(F)(F)F ... inactive
CCN(CC)c1ccc(N=Nc2ccccc2)cc1 ... active
NC(=O)C(F)(F)C(F)(F)C(F)(F)F ... inactive
Cc1cc(O)c(C(C)(C)C)cc1C(C)(C)C ... active
OCC(F)(F)C(F)(F)C(F)(F)C(F)(F)C(F)(F)C(F)(F)CO ... inactive

Pending compound:
query: Please indicate how the test categorized COC(F)(C(F)F)C(F)(F)F (stereo not drawn) .
result: inactive

---

assay: ATG_PXRE_CIS: Attagene CIS-FACTORIAL HepG2 Assay for human Pregnane X Receptor Element (PXRE) (AID 2282957); conditions: HepG2 Attagene CIS-FACTORIAL PXRE reporter, mRNA; actives raise or lower the signal
Calls of active or inactive are those of the source. How the source made its calls: active means hit-call score of the fitted dose curve at least 0.9, where 1 is the maximum; inactive means score below 0.9.
Choose the fitting class; nothing outside active, inactive is accepted.

Here are 5 compounds together with their reported answers.
F[Si-2](F)(F)(F)(F)F ... inactive
CN(N=O)C(=O)N[C@@H]1[C@@H](O)[C@H](O)[C@@H](CO)O[C@@H]1O ... inactive
C=CC(=O)OCC(F)(F)C(F)(F)C(F)(F)COC(=O)C=C ... inactive
O=C1OC(=O)c2ccc3c4c(ccc1c24)C(=O)OC3=O ... inactive
Oc1ccc2c(c1)CCC2 ... inactive

query: Hi, do you know how O=C(O)C(F)(F)C(F)(F)C(F)(F)OC(F)(F)F came out in this test?
result: inactive

---

assay: ACEA_ER_AUC_viability: ACEA Biosciences xCELLigence Real-Time Cell Analysis on Estrogen Receptor Agonism for Viability (AID 2283782);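 note: continuous compound exposure with impedance area under curve over 80 h; hit means loss of impedance signal meaning reduced cell growth or viability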
Records with an inconclusive call do not appear. Calls of active or inactive are those of the source. How the source made its calls: active means hit-call score of the fitted dose curve at least 0.9, where 1 is the maximum; inconclusive means response in the unintended direction; inactive means score below 0.9.
Outcomes you can answer with include only these: True for active, False for inactive

Field: example entries. Status: answers known.
CN(N=O)C(=O)N[C@@H]1[C@@H](O)[C@H](O)[C@@H](CO)O[C@@H]1O ... False
COc1ccccc1C=O ... False
Cc1cc(O)c(C(C)(C)C)cc1C(C)(C)C ... True

query: Please let me know the test result on file for Oc1ccc(C2(c3ccc(O)c(C4CCCCC4)c3)CCCCC2)cc1C1CCCCC1 .
result: True

---

assay: ATG_TAL_CIS: Attagene CIS-FACTORIAL HepG2 Assay for human TAL Basal Promoter (AID 2282966); settings: HepG2 Attagene cis-factorial TAL promoter reporter; actives raise or lower the signal;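 note: background control endpoint measuring basal TAL promoter reporter mRNA not a specific factor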
Calls of active or inactive are those of the source. The calls were made as follows: active = hit-call score of the fitted dose curve at least 0.9, where 1 is the maximum; inactive = score below 0.9.
Answer with one of the outcomes given here: active, inactive

CC(C)(C)c1cc(CCC(=O)NCCCCCCNC(=O)CCc2cc(C(C)(C)C)c(O)c(C(C)(C)C)c2)cc(C(C)(C)C)c1O ... inactive
CCCCCCCC/C=C\CCCCCCCC(=O)OCC(O)CO (stereo not drawn) ... inactive
CC(O)C#CC(C)O (stereo not drawn) ... inactive

query: What was the test verdict on Cc1cnccn1 ?
result: inactive

query: What did the test return for Cc1cc(O)c(C(C)(C)C)cc1C(C)(C)C ?
result: inactive

query: For this compound, state the assay outcome: Cc1cc(C)c(O)c(C(C)(C)C)c1
result: inactive

query: For this compound, state the assay outcome: O=S(=O)(Cl)C(F)(F)C(F)(F)C(F)(F)C(F)(F)C(F)(F)C(F)(F)C(F)(F)C(F)(F)F
result: inactive

query: Recorded call for CC(C)CCCC(C)CCO (stereo not drawn) ?
result: inactive

query: Which outcome did this test record for the compound NC(O)(C(F)(F)F)C(F)(F)F ?
result: inactive

query: Given N#CCCOCCC#N , state the outcome it received in this test.
result: inactive

query: Recorded test call requested for CCc1cc(Cc2cc(CC)c(N)c(CC)c2)cc(CC)c1N
result: active

query: How was CC1=CCC2C(=O)OC(=O)C2C1 (stereo not drawn) classified in this test?
result: inactive

query: I'd appreciate the recorded outcome for CCN(CC)c1ccc(C=O)c(O)c1 from this test.
result: inactive

---

molecular target: Cellular tumor antigen p53 (Homo sapiens) (UniProt P04637); assay: ATG_p53_CIS: Attagene CIS-FACTORIAL HepG2 Assay for human p53 Transcription Factor (AID 2282994); conditions: HepG2 p53 cis-element reporter, Attagene mRNA; actives raise or lower the signal
Sequence (P04637 whole entry, looked up): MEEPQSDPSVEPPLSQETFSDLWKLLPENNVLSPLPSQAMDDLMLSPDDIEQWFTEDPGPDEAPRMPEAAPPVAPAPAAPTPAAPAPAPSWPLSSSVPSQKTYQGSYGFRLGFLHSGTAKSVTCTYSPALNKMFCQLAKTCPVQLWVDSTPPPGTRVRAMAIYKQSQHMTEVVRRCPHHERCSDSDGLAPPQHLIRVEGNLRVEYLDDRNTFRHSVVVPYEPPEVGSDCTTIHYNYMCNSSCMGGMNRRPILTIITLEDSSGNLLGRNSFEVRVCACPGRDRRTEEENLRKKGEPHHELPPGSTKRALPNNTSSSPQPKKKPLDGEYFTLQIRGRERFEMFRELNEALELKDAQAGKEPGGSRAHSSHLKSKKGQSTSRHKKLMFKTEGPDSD
The source made the active and inactive calls. Rule for the calls: active = hit-call score of the fitted dose curve at least 0.9, where 1 is the maximum; inactive = score below 0.9.
Answer with one of the outcomes given here: y for active, n for inactive

query: For this molecule, state the assay outcome: OCC(O)CC(F)(F)C(F)(F)C(F)(F)C(F)(F)C(F)(F)C(F)(F)C(F)(F)C(F)(F)F (configuration not stated)
result: n

query: Name the outcome recorded for Cc1ccc(O)c(-n2nc3ccccc3n2)c1 in the assay.
result: n

query: For this molecule, state the assay outcome: O=S(=O)(OCC(F)(F)F)C(F)(F)C(F)(F)C(F)(F)C(F)(F)F
result: y

---

tested on: Thyroperoxidase (TPO), gene 54314; experiment: CCTE_Simmons_AUR_rTPO: CCTE's Amplex UltraRed Assay for Thyroperoxidase (TPO) Inhibition, Simmons Lab (AID 2283662)
Calls of active or inactive are those of the source. Rule for the calls: active = hit-call score of the fitted dose curve at least 0.9, where 1 is the maximum; inconclusive = response in the unintended direction; inactive = score below 0.9.
# valid calls are t (active), f (inactive); nothing else

CC(C)(C)c1cc(Cc2cc(C(C)(C)C)c(O)c(C(C)(C)C)c2)cc(C(C)(C)C)c1O ... t
Cc1ccc(O)c(-n2nc3ccccc3n2)c1 ... f
CCCCCCCCCc1ccc(OCCO)cc1 ... t
CCCCCCCC/C=C\CCCCCCCC(=O)N(C)CC(=O)O ... t
C[C@]12CC[C@H]3C(=CCc4cc(O)ccc43)[C@@H]1CCC2=O ... t

query: Any idea what this test logged for O=c1[nH]cccc1O ?
result: t

query: Per the records of this test, what outcome belongs to CC(C)OC=O ?
result: f

query: What was the test verdict on Cc1ccc(O)cn1 ?
result: f

All values here come from PubChem BioAssay (EPA / NIEHS).
